system: BT-549; assay: normalised response (% of control), CellTiter-Glo; higher = more viable cells (100 = DMSO, 0 = benzethonium chloride kill control); details: incubation time: 72 h
Readings of normalised response for the listed molecules
Respond numerically; units are % and should not be typed.

Worked set:
{"columns": ["molecule", "testResult"],
 "data": [
  ["O=C1CCC(N2C(=O)c3ccccc3C2=O)C(=O)N1 (centres undefined) [Thalidomide] (10000 nM)", 96.7],
  ["C[C@@H](Oc1cc(-c2cnn(C3CCNCC3)c2)cnc1N)c1c(Cl)ccc(F)c1Cl [Crizotinib] (1000 nM)", 93.1],
  ["CNCc1ccc(-c2[nH]c3cc(F)cc4c3c2CCNC4=O)cc1 [Rucaparib] (10000 nM)", 81.8],
  ["CC(=O)Nc1ccc(C(=O)Nc2ccccc2N)cc1 [Tacedinaline] (1000 nM)", 107]
]}

Given the entry C=C(c1ccc(C(=O)O)cc1)c1cc2c(cc1C)C(C)(C)CCC2(C)C [Bexarotene] (10000 nM) , report its measured normalised response.
99.9

# get_value(readout='normalised response', item= C[C@]12CC[C@@H]3c4ccc(O)cc4C[C@@H](CCCCCCCCC[S+]([O-])CCCC(F)(F)C(F)(F)F)[C@H]3[C@@H]1CC[C@@H]2O (some centres undefined) [Fulvestrant] (1000 nM) )
99.3

Which value of normalised response has been reported for O=P1(NCCCl)OCCCN1CCCl (centres undefined) [Ifosfamide] (10000 nM) in the records?
99.3

Can you look up the measured normalised response of CN(C)/N=N/c1[nH]cnc1C(N)=O [Dacarbazine] (10000 nM) for me?
99.4

Given Oc1nc(-c2ccc(C(F)(F)F)cc2)nc2c1CSCC2 [XAV-939] (10000 nM) , state its recorded normalised response.
90.5

====

test system: MDA-MB-436; test: normalised response (% of control), CellTiter-Glo; higher = more viable cells (100 = DMSO, 0 = benzethonium chloride kill control); conditions: incubation time: 72 h
experimentalEndpoint: normalised response (%)
Field format: number, assumed %, no unit text.

Solved cases (5 shown):
{"columns": ["compound", "normalised response / %"],
 "data": [
  ["CCC(C)(C)C(=O)O[C@H]1C[C@@H](C)C=C2C=C[C@H](C)[C@H](CC[C@@H]3C[C@@H](O)CC(=O)O3)[C@H]21 [Simvastatin] (1000 nM)", 98.9],
  ["Cc1ccc(C(=O)N(CCCN)[C@@H](c2oc3cc(Cl)ccc3c(=O)c2Cc2ccccc2)C(C)C)cc1 (10 nM)", 107],
  ["Cn1c(Nc2ccc(C(F)(F)F)cc2)nc2cc(Oc3ccnc(-c4ncc(C(F)(F)F)[nH]4)c3)ccc21 [RAF265] (1 nM)", 105],
  ["CCC1=C[C@@H]2CN(C1)Cc1c([nH]c3ccccc13)[C@@](C(=O)OC)(c1cc3c(cc1OC)N(C)[C@H]1[C@@](O)(C(=O)OC)[C@H](OC(C)=O)[C@]4(CC)C=CCN5CC[C@]31[C@@H]54)C2 [Vinorelbine] (1000 nM)", 24.7],
  ["COc1cc([C@@H]2c3cc4c(cc3[C@@H](O[C@@H]3O[C@@H]5CO[C@@H](C)O[C@H]5[C@H](O)[C@H]3O)[C@H]3COC(=O)[C@H]23)OCO4)cc(OC)c1O [Etoposide] (1000 nM)", 67]
]}

So what does the record say about normalised response for CCC1(c2ccc(N)cc2)CCC(=O)NC1=O (stereo unspecified) [Aminoglutethimide] (10 nM) ?
95.4

Which normalised response is listed for CCC1(c2ccc(N)cc2)CCC(=O)NC1=O (stereo unspecified) [Aminoglutethimide] (1000 nM) ?
102

I would be grateful if you could share the reported normalised response for N.N.[Cl][Pt][Cl] [Cisplatin] (0.1 nM) .
98.2

Find the recorded normalised response belonging to Cn1c(CCCC(=O)O)nc2cc(N(CCCl)CCCl)ccc21 [Bendamustine] (1 nM) and report it.
97.5

Dear colleague, I am looking for the recorded normalised response of the following compound: Cn1c(Nc2ccc(C(F)(F)F)cc2)nc2cc(Oc3ccnc(-c4ncc(C(F)(F)F)[nH]4)c3)ccc21 [RAF265] (0.1 nM)
104

Item under review: CO[C@H]1/C=C\C=C(/C)C(=O)NC2=CC(=O)C(NCCN(C)C)=C(C[C@@H](C)C[C@H](OC)[C@H](O)[C@@H](C)/C=C(\C)[C@@H]1OC(N)=O)C2=O [Alvespimycin] (0.1 nM) . Reported normalised response?
97.5

====

system: MCF-10A; assay: normalised response (% of control), CellTox Green; higher = less cell death (100 = DMSO, 0 = benzethonium chloride kill control); details: incubation time: 72 h
Quick rule: normalised response of at least 90% means 1, below that means 0.

Some solved cases for reference:
{"columns": ["compound", "categoryLabel"],
 "data": [
  ["CO[C@H]1/C=C\\C=C(/C)C(=O)NC2=CC(=O)C(NCCN(C)C)=C(C[C@@H](C)C[C@H](OC)[C@H](O)[C@@H](C)/C=C(\\C)[C@@H]1OC(N)=O)C2=O [Alvespimycin] (10 nM)", 1],
  ["Clc1ccc(Nc2nnc(Cc3ccncc3)c3ccccc23)cc1 [Vatalanib] (10000 nM)", 0],
  ["CNCc1ccc(-c2[nH]c3cc(F)cc4c3c2CCNC4=O)cc1 [Rucaparib] (1000 nM)", 0],
  ["CN(C)/N=N/c1[nH]cnc1C(N)=O [Dacarbazine] (100 nM)", 1],
  ["O=C(CCCCCCC(=O)Nc1ccc([C@H]2O[C@@H](CSc3nc(-c4ccccc4)c(-c4ccccc4)o3)C[C@@H](c3ccc(CO)cc3)O2)cc1)NO [Tubacin] (100 nM)", 1]
]}

Decide: normalised response of CN(N=O)C(=O)N[C@@H](C=O)[C@@H](O)[C@H](O)[C@H](O)CO [Streptozocin] (10000 nM) >= 90%?
1

====

system: MDA-MB-436; experiment: normalised response (% of control), CellTox Green; higher = less cell death (100 = DMSO, 0 = benzethonium chloride kill control); conditions: incubation time: 72 h
experimentalEndpoint: normalised response (%)
Give just the number in %; leave the unit off.

{"columns": ["molecule", "unitDescriptor", "normalised response"],
 "data": [
  ["COc1cc([C@@H]2c3cc4c(cc3[C@@H](O[C@@H]3O[C@@H]5CO[C@@H](C)O[C@H]5[C@H](O)[C@H]3O)[C@H]3COC(=O)[C@H]23)OCO4)cc(OC)c1O [Etoposide] (10000 nM)", "%", 80.9],
  ["Cc1ccc(-n2nc(C(C)(C)C)cc2NC(=O)Nc2ccc(OCCN3CCOCC3)c3ccccc23)cc1 [Doramapimod] (1000 nM)", "%", 87.7],
  ["N#CCNC(=O)c1ccc(-c2ccnc(Nc3ccc(N4CCOCC4)cc3)n2)cc1 [Momelotinib] (100 nM)", "%", 104]
]}

Any idea what normalised response was measured for Cn1c(CCCC(=O)O)nc2cc(N(CCCl)CCCl)ccc21 [Bendamustine] (1000 nM) ?
81.8

Entry CCCCCCCCCCCCCCCCCCOP(=O)([O-])OC1CC[N+](C)(C)CC1 [Perifosine] (2500 nM) has what normalised response?
78

====

tested on: MDA-MB-231; assay: normalised response (% of control), CellTiter-Glo; higher = more viable cells (100 = DMSO, 0 = benzethonium chloride kill control); conditions: incubation time: 72 h
experimentalEndpoint: normalised response (%)
Answer with a number only, understood to be in %.

{"columns": ["compound", "normalised response, %"],
 "data": [
  ["Cn1c(CCCC(=O)O)nc2cc(N(CCCl)CCCl)ccc21 [Bendamustine] (1000 nM)", 106]
]}

# normalised response lookup, item Clc1ccc(Nc2nnc(Cc3ccncc3)c3ccccc23)cc1 [Vatalanib] (1000 nM)
105

Look at this compound and give its reported normalised response. NC(=O)Nc1cc(-c2cccc(F)c2)sc1C(=O)N[C@H]1CCCNC1 [AZD7762] (0.1 nM)
105

Name the recorded normalised response for CC1(C)NC(=O)N(c2ccc([N+](=O)[O-])c(C(F)(F)F)c2)C1=O [Nilutamide] (1000 nM) .
102

Any idea what its normalised response is? The compound is CCCCCCCCCCCCCCCCCCOP(=O)([O-])OC1CC[N+](C)(C)CC1 [Perifosine] (250 nM)
102

I would be grateful if you could share the reported normalised response for CN[C@@H]1C[C@H]2O[C@@](C)([C@@H]1OC)n1c3ccccc3c3c4c(c5c6ccccc6n2c5c31)C(=O)N[C@H]4O [UCN-01] (10 nM) .
81.1

====

system: HDQ-P1; experiment: drug sensitivity score (DSS), CellTiter-Glo (DSS (AUC-based score)); higher = stronger drug effect (viability inhibition or cytotoxicity); extreme values may be limits of the assay; conditions: incubation time: 72 h
Entries annotated with measured drug sensitivity score
Form rule: numeric answer, no unit written next to it.

Worked cases, answers included:
{"columns": ["compound", "drug sensitivity score"],
 "data": [
  ["C[C@]12CC[C@@H]3c4ccc(O)cc4C[C@@H](CCCCCCCCC[S+]([O-])CCCC(F)(F)C(F)(F)F)[C@H]3[C@@H]1CC[C@@H]2O (stereo not given in full) [Fulvestrant]", 0],
  ["N.N.[Cl][Pt][Cl] [Cisplatin]", 0],
  ["COc1cc2nccc(Oc3ccc(NC(=O)C4(C(=O)Nc5ccc(F)cc5)CC4)cc3)c2cc1OC [Cabozantinib]", 0],
  ["N#CCNC(=O)c1ccc(-c2ccnc(Nc3ccc(N4CCOCC4)cc3)n2)cc1 [Momelotinib]", 0]
]}

Could you now look at the following compound, please?
// query drug sensitivity score value for entry COc1cc2ncnc(Nc3ccc(F)c(Cl)c3)c2cc1NC(=O)/C=C/CN1CCCCC1 [Dacomitinib]
8.45
